Test system: NCI-H1993
Test: relative viability (nuclei count vs DMSO), 5 days (fraction); higher = more cells survive
Conditions: first compound 0.005 µM
Returns: string. Value is rule met if measured relative viability is below 0.8, and rule not met if it is greater than or equal to it.

Criterion: relative viability strictly below 0.8. Is it met by Nc1ccn([C@@H]2O[C@H](CO)[C@@H](O)[C@@H]2O)c(=O)n1 [Cytarabine] + NC(=O)Nc1cc(-c2cccc(F)c2)sc1C(=O)N[C@H]1CCCNC1 [AZD7762] (partner 0.2 µM) ?
rule met

Does this compound meet the criterion relative viability < 0.8? Nc1ccn([C@@H]2O[C@H](CO)[C@@H](O)[C@@H]2O)c(=O)n1 [Cytarabine] + CS(=O)(=O)N1CCN(Cc2cc3nc(-c4cccc5[nH]ncc45)nc(N4CCOCC4)c3s2)CC1 [Pictilisib] (partner 1 µM)
rule not met

Consider the compound Nc1ccn([C@@H]2O[C@H](CO)[C@@H](O)[C@@H]2O)c(=O)n1 [Cytarabine] + Nc1nc2[nH]cc(CCc3ccc(C(=O)N[C@@H](CCC(=O)O)C(=O)O)cc3)c2c(=O)[nH]1 [Pemetrexed] (partner 0.2 µM) . Is its relative viability strictly less than 0.8?
rule met

Please determine if COc1cc2nccc(Oc3ccc(NC(=O)Nc4cc(C)on4)c(Cl)c3)c2cc1OC [Tivozanib] + C[C@]1(O)C[C@@H](c2nc(-c3ccc4ccc(-c5ccccc5)nc4c3)c3c(N)nccn32)C1 [Linsitinib] (partner 1 µM) is below 0.8 in terms of relative viability.
rule met

Report whether reported relative viability is lower than 0.8 (strictly) for COc1cc2nccc(Oc3ccc(NC(=O)Nc4cc(C)on4)c(Cl)c3)c2cc1OC [Tivozanib] + CC(=O)Nc1cccc(-n2c(=O)n(C3CC3)c(=O)c3c(Nc4ccc(I)cc4F)n(C)c(=O)c(C)c32)c1 [Trametinib] (partner 0.02 µM)
rule met

Determine if Nc1ccn([C@@H]2O[C@H](CO)[C@@H](O)[C@@H]2O)c(=O)n1 [Cytarabine] + CC1(C)CCC(c2ccc(Cl)cc2)=C(CN2CCN(c3ccc(C(=O)NS(=O)(=O)c4ccc(N[C@H](CCN5CCOCC5)CSc5ccccc5)c(S(=O)(=O)C(F)(F)F)c4)cc3)CC2)C1 [Navitoclax] (partner 0.5 µM) shows relative viability strictly lower than 0.8.
rule not met

Please let me know if Nc1ccn([C@@H]2O[C@H](CO)[C@@H](O)[C@@H]2O)c(=O)n1 [Cytarabine] + O=C(CCCCCCC(=O)Nc1ccccc1)NO [Vorinostat] (partner 1 µM) shows relative viability below 0.8.
rule not met

Does the reported relative viability of the following compound sit strictly below 0.8? Nc1ccn([C@@H]2O[C@H](CO)[C@@H](O)[C@@H]2O)c(=O)n1 [Cytarabine] + Cc1cc(Nc2cc(N3CCN(C)CC3)nc(Sc3ccc(NC(=O)C4CC4)cc3)n2)n[nH]1 [Tozasertib] (partner 0.1 µM)
rule met

Check if relative viability falls below 0.8 for Nc1ccn([C@@H]2O[C@H](CO)[C@@H](O)[C@@H]2O)c(=O)n1 [Cytarabine] + CC(C)C[C@H](NC(=O)[C@H](Cc1ccccc1)NC(=O)c1cnccn1)B(O)O [Bortezomib] (partner 0.002 µM) .
rule not met

* * *

Please provide measured relative viability for the entries that follow.
Test system: HCC-366
Assay: relative viability (nuclei count vs DMSO), 5 days (fraction); higher = more cells survive
Conditions: first compound 158.11 µM
# output: bare number, no unit

GET relative viability where system = HCC-366 and item = O=C(O)CCCCC(CCSCc1ccccc1)SCc1ccccc1 (stereo not drawn) [CPI-613] + CC(=O)Nc1cccc(-n2c(=O)n(C3CC3)c(=O)c3c(Nc4ccc(I)cc4F)n(C)c(=O)c(C)c32)c1 [Trametinib] (partner 0.02 µM)
0.12

Report the value of relative viability obtained on HCC-366 for O=C(O)CCCCC(CCSCc1ccccc1)SCc1ccccc1 (stereo not drawn) [CPI-613] + Nc1nc2[nH]cc(CCc3ccc(C(=O)N[C@@H](CCC(=O)O)C(=O)O)cc3)c2c(=O)[nH]1 [Pemetrexed] (partner 0.2 µM) .
0.123

Param request: relative viability | system HCC-366 | item O=C(O)CCCCC(CCSCc1ccccc1)SCc1ccccc1 (stereo not drawn) [CPI-613] + Cc1nc(Nc2ncc(C(=O)Nc3c(C)cccc3Cl)s2)cc(N2CCN(CCO)CC2)n1 [Dasatinib] (partner 0.075 µM)
0.309

Answer briefly: relative viability recorded on HCC-366 for O=C(O)CCCCC(CCSCc1ccccc1)SCc1ccccc1 (stereo not drawn) [CPI-613] + C[C@@H](Oc1cc(-c2cnn(C3CCNCC3)c2)cnc1N)c1c(Cl)ccc(F)c1Cl [Crizotinib] (partner 1 µM)
0.331

// output relative viability; input O=C(O)CCCCC(CCSCc1ccccc1)SCc1ccccc1 (stereo not drawn) [CPI-613] + Nc1ncn([C@H]2C[C@H](O)[C@@H](CO)O2)c(=O)n1 [Decitabine] (partner 2 µM) ; system HCC-366
0.202

Fill in: relative viability on HCC-366, entry O=C(O)CCCCC(CCSCc1ccccc1)SCc1ccccc1 (stereo not drawn) [CPI-613] + COc1cc2c(Oc3ccc(NC(=O)C4(C(=O)Nc5ccc(F)cc5)CC4)cc3F)ccnc2cc1OCCCN1CCOCC1 [Foretinib] (partner 0.25 µM)
0.322

Find the measured relative viability of O=C(O)CCCCC(CCSCc1ccccc1)SCc1ccccc1 (stereo not drawn) [CPI-613] + C[C@]1(O)C[C@@H](c2nc(-c3ccc4ccc(-c5ccccc5)nc4c3)c3c(N)nccn32)C1 [Linsitinib] (partner 1 µM) with HCC-366 as test system.
0.587

Find the measured relative viability of O=C(O)CCCCC(CCSCc1ccccc1)SCc1ccccc1 (stereo not drawn) [CPI-613] + CC1(C)CCC(c2ccc(Cl)cc2)=C(CN2CCN(c3ccc(C(=O)NS(=O)(=O)c4ccc(N[C@H](CCN5CCOCC5)CSc5ccccc5)c(S(=O)(=O)C(F)(F)F)c4)cc3)CC2)C1 [Navitoclax] (partner 0.5 µM) with HCC-366 as test system.
0.774
